Data provenance: paper PMC4128710

Target: A2BAR (Homo sapiens, UniProt P29275)
Sequence (P29275 1-332): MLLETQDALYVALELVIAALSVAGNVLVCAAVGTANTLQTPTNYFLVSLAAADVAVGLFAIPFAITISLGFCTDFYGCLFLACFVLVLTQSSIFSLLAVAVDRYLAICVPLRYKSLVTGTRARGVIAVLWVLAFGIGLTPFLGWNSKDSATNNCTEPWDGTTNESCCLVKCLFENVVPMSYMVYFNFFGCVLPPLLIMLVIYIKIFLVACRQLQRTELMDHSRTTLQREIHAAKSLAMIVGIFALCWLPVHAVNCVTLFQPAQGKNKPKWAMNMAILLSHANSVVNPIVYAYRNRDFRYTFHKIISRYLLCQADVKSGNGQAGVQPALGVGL
Assay: cAMP accumulation in T24 cells endogenously expressing the A2BAR
# EC50 annotations
Reply with just the number (in µM).

Look over these answered cases.
| COMPOUND | SCALE_UNIT | OBS_VALUE |
| --- | --- | --- |
| OC[C@H]1O[C@@H](n2cnc3c(Nc4ccc(I)cc4)ncnc32)[C@H](O)[C@@H]1O [MRS5911, N^6-(4-iodophenyl)adenosine] | µM | 0.899 |
| Nc1nc(OCCc2c[nH]c3ccccc23)nc2c1ncn2[C@@H]1O[C@H](CO)[C@@H](O)[C@H]1O [MRS3534, 2-(2-(indol-3-yl)ethyloxy)adenosine] | µM | 2.16 |
| Nc1nc(Nc2ccccc2)nc2c1ncn2[C@@H]1O[C@H](CO)[C@@H](O)[C@H]1O [CV1808, 2-phenylaminoadenosine] | µM | 9.1 |

# evaluate next
I would be grateful if you could share the reported EC50 for Nc1nc(OCCc2c[nH]c3cc(Br)ccc23)nc2c1ncn2[C@@H]1O[C@H](CO)[C@@H](O)[C@H]1O [MRS3997] .
0.745
